tested on: HCC1806 cells; assay: Resazurin-based cell viability assay, monotherapy drug screen; design: species or system human; details: HCC1806; drug efficacy at highest tested dose (<0 cytotoxic, 0 cytostatic, >0 partial growth inhibition)
Residues, ends and D or L forms follow the SMILES beside them. *: point of attachment. Cbz = O=C(OCc1ccccc1)*
Parameter: GRmax
Respond using a number only.

Known results for molecules:
N.N.O=C([O-])C1(C(=O)[O-])CCC1.[Pt+2] = 0.53
COc1cccc2c1C(=O)c1c(O)c3c(c(O)c1C2=O)C[C@@](O)(C(=O)CO)C[C@@H]3O[C@H]1C[C@H](N)[C@@H](O)[C@H](C)O1 [Epirubicin] = 0.45
N.N.[Cl][Pt][Cl] [Cisplatin] = −0.72

The molecule "[NH2][Pt]1([NH2])[O]CC(=O)[O]1" on HCC1806 cells: GRmax was −0.38

The molecule "CC(C)C[C@H](NC(=O)[C@H](Cc1ccccc1)NC(=O)c1cnccn1)B(O)O" on HCC1806 cells: GRmax was 0.33

The molecule "CC(C)C[C@H](NC(=O)[C@H](CCc1ccccc1)NC(=O)CN1CCOCC1)C(=O)N[C@@H](Cc1ccccc1)C(=O)N[C@@H](CC(C)C)C(=O)[C@@]1(C)CO1" on HCC1806 cells: GRmax was 0.31

The molecule CC(C)C[C@@H](C=O)NC(=O)[C@H](CC(C)C)NC(=O)[C@H](CC(C)C)NC(=O)OCc1ccccc1 [MG 132, MG-132] (Cbz-Leu-Leu-Leu-aldehyde) on HCC1806 cells: GRmax was 0.31

The molecule "CC1=C(O)C(=O)C=C2C1=CC=C1[C@@]2(C)CC[C@@]2(C)[C@@H]3C[C@](C)(C(=O)O)CC[C@]3(C)CC[C@]12C" on HCC1806 cells: GRmax was −0.82

* * *

tested on: HCC1806 cells; assay: Resazurin-based cell viability assay, monotherapy drug screen; parameters: species or system human; conditions: Homo sapiens, HCC1806, 24 h, read-out: GR50 (µM)
Residues, ends and D or L forms follow the SMILES beside them. *: point of attachment. Cbz = O=C(OCc1ccccc1)*
Parameter: IC50 (µM)
Field: numeric (µM). Do not append units.

CC1=C(O)C(=O)C=C2C1=CC=C1[C@@]2(C)CC[C@@]2(C)[C@@H]3C[C@](C)(C(=O)O)CC[C@]3(C)CC[C@]12C = 3.4

Given item CC(C)C[C@@H](C=O)NC(=O)[C@H](CC(C)C)NC(=O)[C@H](CC(C)C)NC(=O)OCc1ccccc1 [MG 132, MG-132] (Cbz-Leu-Leu-Leu-aldehyde) , the value recorded as its IC50 is 2.5

* * *

Test system: control cell lines (MCF-10A and MCF-7)
Experiment: Monotherapy drug screen, mean across the controls
Type: cell-based, human
Conditions: 24 h
Procedure: Eighteen pharmaceutical compounds were purchased from Selleckchem (Supplementary Table 2). Stock solutions were prepared using dimethyl sulfoxide (DMSO; Merck), physiological saline (sodium chloride 0.9%) or Milli-Q water, and stored at −80 °C. […] Matched concentration solvent vehicle controls were used for each drug concentration. […] The optimal seeding density per 96-well was determined for each cell line as previously described. […]
Parameter: area under the dose response curve (AUC), mean ± SD

Known results for molecules:
[NH2][Pt]1([NH2])[O]CC(=O)[O]1 = 0.70 ± 0.13
CC(C)C[C@H](NC(=O)[C@H](Cc1ccccc1)NC(=O)c1cnccn1)B(O)O = 0.69 ± 0.10
N.N.[Cl][Pt][Cl] [Cisplatin] = 0.54 ± 0.12

Given item "CC[C@H](C)[C@H](NC(=O)[C@H]([C@@H](C)CC)N(C)C(C)=O)C(=O)N[C@H](C(=O)N[C@@H](CC(C)C)C(=O)[C@@]1(C)CO1)[C@@H](C)O" , the value recorded as its area under the dose response curve (AUC), mean ± SD is 0.66 ± 0.080

* * *

Form field: pIC50 (one value per entry).
system: eight TNBC cell lines (BT-549, CAL-148, HCC1806, HCC38, HCC70, MDA-MB-436, MDA-MB-453, MDA-MB-468); experiment: Monotherapy drug screen, mean across the TNBC cell lines; conditions: Homo sapiens, 24 h, read-out: GR50 (mean ± SD)
// pIC50 is dimensionless: -log10 of concentration (M)

CC(C)C[C@H](NC(=O)[C@H](Cc1ccccc1)NC(=O)c1cnccn1)B(O)O [Bortezomib] = 7.00
CC(C)C[C@H](NC(=O)[C@H](CCc1ccccc1)NC(=O)CN1CCOCC1)C(=O)N[C@@H](Cc1ccccc1)C(=O)N[C@@H](CC(C)C)C(=O)[C@@]1(C)CO1 [Carfilzomib] = 6.36
CC(=O)O[C@@]12CO[C@@H]1C[C@H](O)[C@@]1(C)C(=O)[C@H](O)C3=C(C)[C@@H](OC(=O)[C@H](O)[C@@H](NC(=O)OC(C)(C)C)c4ccccc4)C[C@@](O)([C@@H](OC(=O)c4ccccc4)[C@H]21)C3(C)C [Docetaxel] = 8.06
CC(C)C[C@H](NC(=O)CNC(=O)c1cc(Cl)ccc1Cl)B(O)O [MLN 2238, MLN-2238] = 6.17

Given item CC(C)C[C@H](NC(=O)[C@@H](NC(=O)c1cccc(-c2ccccc2)n1)[C@@H](C)O)B(O)O [Delanzomib] , the value recorded as its pIC50 is 7.10

* * *

system: eight TNBC cell lines (BT-549, CAL-148, HCC1806, HCC38, HCC70, MDA-MB-436, MDA-MB-453, MDA-MB-468); test: Monotherapy drug screen, mean across the TNBC cell lines; settings: TNBC cell lines; 24 h
I would appreciate it if you labelled entries T when area under the dose response curve (AUC), mean ± SD is 0.7 or higher, otherwise F.

Consider the worked cases shown below.
CC(C)C[C@H](NC(=O)[C@H](Cc1ccccc1)NC(=O)c1cnccn1)B(O)O [Bortezomib] = F
CC(C)C[C@H](NC(=O)CNC(=O)c1cc(Cl)ccc1Cl)B(O)O [MLN 2238, MLN-2238] = T
CC(C)C[C@H](NC(=O)[C@H](CCc1ccccc1)NC(=O)CN1CCOCC1)C(=O)N[C@@H](Cc1ccccc1)C(=O)N[C@@H](CC(C)C)C(=O)[C@@]1(C)CO1 [Carfilzomib] = T

Q. Does the reported area under the dose response curve (AUC), mean ± SD for N.N.[Cl][Pt][Cl] [Cisplatin] fall at or above the 0.7 mark?
A. F

Q. Does the reported area under the dose response curve (AUC), mean ± SD for CC(C)C[C@H](NC(=O)CNC(=O)c1cc(Cl)ccc1Cl)B1OC(=O)C(CC(=O)O)(CC(=O)O)O1 [MLN 9708, MLN-9708] fall at or above the 0.7 mark?
A. T

Q. Does the reported area under the dose response curve (AUC), mean ± SD for CC(=O)O[C@@]12CO[C@@H]1C[C@H](O)[C@@]1(C)C(=O)[C@H](O)C3=C(C)[C@@H](OC(=O)[C@H](O)[C@@H](NC(=O)OC(C)(C)C)c4ccccc4)C[C@@](O)([C@@H](OC(=O)c4ccccc4)[C@H]21)C3(C)C [Docetaxel] fall at or above the 0.7 mark?
A. T

* * *

Form field: IC50 (one value per entry).
Tested on: MCF-7 cells
Assay: Resazurin-based cell viability assay, monotherapy drug screen
Parameters: species or system human
Settings: MCF-7; growth rate inhibition concentration at GR(c) = 0.5, 24 h; read-out: GR50 (the source's name)
Method: Eighteen pharmaceutical compounds were purchased from Selleckchem. […] The stock solutions were stored at -80°C. […] New drug plates were prepared for each drug screen. […]
Field: numeric (nM). Do not append units.

Known results for molecules:
CC[C@H](C)[C@H](NC(=O)[C@H]([C@@H](C)CC)N(C)C(C)=O)C(=O)N[C@H](C(=O)N[C@@H](CC(C)C)C(=O)[C@@]1(C)CO1)[C@@H](C)O = 75
N.N.[Cl][Pt][Cl] [Cisplatin] = 15
N.N.O=C([O-])C1(C(=O)[O-])CCC1.[Pt+2] = 360

// moving on: another record for IC50
Given item "[NH2][Pt]1([NH2])[O]CC(=O)[O]1" , the value recorded as its IC50 is 75

* * *

system: eight TNBC cell lines (BT-549, CAL-148, HCC1806, HCC38, HCC70, MDA-MB-436, MDA-MB-453, MDA-MB-468); test: Monotherapy drug screen, mean across the TNBC cell lines; details: TNBC cell lines; by GRmax
Parameter: cytotoxic effect at the highest dose

COc1cccc2c1C(=O)c1c(O)c3c(c(O)c1C2=O)C[C@@](O)(C(=O)CO)C[C@@H]3O[C@H]1C[C@H](N)[C@H](O)[C@H](C)O1 [Doxorubicin] = lowest cytotoxic effects
CC[C@H](C)[C@H](NC(=O)[C@H]([C@@H](C)CC)N(C)C(C)=O)C(=O)N[C@H](C(=O)N[C@@H](CC(C)C)C(=O)[C@@]1(C)CO1)[C@@H](C)O [Epoxomicin] = lowest cytotoxic effects
COc1cccc2c1C(=O)c1c(O)c3c(c(O)c1C2=O)C[C@@](O)(C(=O)CO)C[C@@H]3O[C@H]1C[C@H](N)[C@@H](O)[C@H](C)O1 [Epirubicin] = lowest cytotoxic effects
CC1=C(O)C(=O)C=C2C1=CC=C1[C@@]2(C)CC[C@@]2(C)[C@@H]3C[C@](C)(C(=O)O)CC[C@]3(C)CC[C@]12C [Celastrol] = cytotoxic
N.N.O=C([O-])C1(C(=O)[O-])CCC1.[Pt+2] [Carboplatin] = lowest cytotoxic effects

// moving on: another record for cytotoxic effect at the highest dose
Given item [NH2][Pt]1([NH2])[O]CC(=O)[O]1 [Nedaplatin] , the value recorded as its cytotoxic effect at the highest dose is cytotoxic
